TEST DETAILS: Pharmacokinetics of fluorocoxib D in research dogs, plasma HPLC
Assay type: in vivo, dog
RECORDED CONDITIONS: female, beagle, dog, plasma, iv; 1 mg/kg i.v., six research dogs, mean ± S.D.
RECORDED ENDPOINT: AUC(0-inf)
The answer should read as a number with its unit following.

[in] What value of measured AUC(0-inf) is listed for COc1ccc2c(c1)c(CC(=O)NCCCCNC(=O)c1ccc(C3=c4cc5c6c(c4Oc4c3cc3c7c4CCCN7CCC3)CCC[N+]=6CCC5)cc1)c(C)n2C(=O)c1ccc(Cl)cc1 ?
[out] 150 ng·h/mL

* * *

TEST DETAILS: Pharmacokinetics of fluorocoxib D in research dogs, plasma HPLC
Assay type: in vivo, dog
RECORDED CONDITIONS: female, beagle, dog, plasma, iv; 1 mg/kg i.v., six research dogs, mean ± S.D.; read-out: Vdarea (volume of distribution)
RECORDED ENDPOINT: Vd (L/kg)
State the answer as a number, implicitly in L/kg.

[in] Tell me the measured Vd of COc1ccc2c(c1)c(CC(=O)NCCCCNC(=O)c1ccc(C3=c4cc5c6c(c4Oc4c3cc3c7c4CCCN7CCC3)CCC[N+]=6CCC5)cc1)c(C)n2C(=O)c1ccc(Cl)cc1 [Fluorocoxib D] , please.
[out] 9.97
